Test system: Escherichia coli NIHJ
assayComment: MIC against Escherichia coli NIHJ
Assay type: cell-based
testContext: Escherichia coli; Table 2, derivatives having a carboxylate radical; heart infusion agar, 37° C., 24 hours; read-out: MIC
testReadout: MIC (µg/mL)
Report as a plain number; the unit µg/mL is understood.

CCCCCCCC/C=C\CCCCCCCC(=O)NCCN1CC[N+](CC(=O)[O-])=C(C)CC1=O: 3200
CCCCCCCCCCCCOCC(O)CN1CCC[N+](C(C)C(=O)[O-])=C(C)CC1=O (stereo not drawn): 800
CCCCCC[C@@H](O)C/C=C\CCCCCCCC(=O)NCCN1CC[N+](CC(=O)[O-])=CC(C)(C)C1=O: 1600
CCCCCCCCC=CCCCCCCCCN1CCC[N+](CC(=O)[O-])=C(C)CC1=O: 800
CCCCCCCCCCCCCCCCCCCCCCNCCN1CC[N+](CC(=O)[O-])=C(C)CC1=O: 3200

The molecule CCCCCCCCc1ccc(OCCOC(C)COC(C)CN2CC[N+](CC(=O)[O-])=C(C)CC2=O)cc1 (stereo not drawn) showed MIC equal to 800

The molecule `CCCCCCCCCCCCN1CC[N+](CC(=O)[O-])=C(C)CC1=O` showed MIC equal to 3200

The molecule CCCCCCC(O)CC=CCCCCCCCC(=O)OC(C)CN1CCC[N+](CC(=O)[O-])=C(C)CC1=O (stereo not drawn) showed MIC equal to 1600

The molecule `CCCCCCCCCCCCN1CCC[N+](CC(=O)[O-])=C(C)CC1=O` showed MIC equal to 3200

The molecule `CCCCCCCCCCCCCCCCN1CC[N+](CC(=O)[O-])=C(C)CC1=O` showed MIC equal to 3200

The molecule CCCCCCCCCCCCN1CC[N+](CC(=O)[O-])=CC(C)C1=O (stereo not drawn) showed MIC equal to 800

The molecule `CCCCCCCCCCCC(=O)OCCN1CC[N+](CC(=O)[O-])=C(C)CC1=O` showed MIC equal to 3200
